System: HT-29
Assay remarks: Anticancer activity against human HT-29 cells assessed as growth inhibition at 50 uM after 48 hrs by SRB assay
Type: functional
Test settings: HT-29, 48 h, read-out: GI
Where inhibition of growth at 50 µM equals or exceeds 40%, the correct label is true; where it does not, the label is false.

>>> df
                               input_smiles  label_class
0  COC(=O)[C@@]1(C)C(=O)CC[C@]2(C)[C@H]3CC=C4[C@@H]5[C@@H](C)[C@H](C)CC[C@]5(C)CC[C@@]4(C)[C@]3(C)CC[C@@H]12        false
1  COC(=O)[C@@]1(C)[C@H](O)CC[C@@]2(C)[C@H]1CC[C@]1(C)[C@@H]2C(=O)C=C2[C@@H]3[C@@H](C)[C@H](C)CC[C@]3(C)CC[C@]21C         true
2  CC(=O)O[C@H]1CC[C@@]2(C)[C@@H](CC[C@]3(C)[C@@H]2C(=O)C=C2[C@@H]4[C@@H](C)[C@H](C)CC[C@]4(C)CC[C@]23C)[C@@]1(C)C(=O)O         true

Hi, just wondering whether CC(=O)O[C@H]1CC[C@@]2(C)[C@@H](CC[C@]3(C)[C@@H]2CC=C2[C@@H]4[C@@H](C)[C@H](C)CC[C@]4(C)CC[C@]23C)[C@@]1(C)C(=O)O shows inhibition of growth at 50 µM of 40% or higher.
false

====

System: HL-60
Assay remarks: Induction of necrosis in p53-deficient human HL60 cells at 50 uM after 6 hrs by FITC-conjugated annexinV/PI-based flow cytometric analysis
Assay type: functional, cell-based
Calls of active or inactive are those of the source. The rule behind the calls is not given here.
Test readout: Activity

>>> df
                               input_smiles  target_desc  test_readout  value_measured
0  CCC(=O)O[C@@H]1CC[C@@]2(C)[C@@H](CC[C@]3(C)[C@@H]2C(=O)C=C2[C@@H]4[C@@H](C)[C@H](C)CC[C@]4(C)CC[C@]23C)[C@@]1(C)C(=O)O        HL-60      Activity        inactive
1  CCC(=O)O[C@H]1CC[C@@]2(C)[C@@H](CC[C@]3(C)[C@@H]2CC=C2[C@@H]4[C@@H](C)[C@H](C)CC[C@]4(C)CC[C@]23C)[C@@]1(C)C(=O)O        HL-60      Activity        inactive
2  CCCC(=O)O[C@@H]1CC[C@@]2(C)[C@@H](CC[C@]3(C)[C@@H]2C(=O)C=C2[C@@H]4[C@@H](C)[C@H](C)CC[C@]4(C)CC[C@]23C)[C@@]1(C)C(=O)O        HL-60      Activity        inactive

====

System: HEp-2
Assay remarks: Anticancer activity against human Hep2 cells assessed as growth inhibition at 50 uM after 48 hrs by SRB assay
Format: functional
Test settings: HEp-2, 48 h, read-out: GI
Listing: inhibition of growth at 50 µM of selected compounds
Supply the numeric figure in %, leaving out any unit text.

Input smiles	Units	Value measured
C[C@H]1[C@H](C)CC[C@]2(C)CC[C@]3(C)C(=CC(=O)[C@@H]4[C@@]5(C)CC[C@@H](OC(=O)CCC(=O)O)[C@](C)(C(=O)O)[C@@H]5CC[C@]43C)[C@H]12	%	6

State the recorded inhibition of growth at 50 µM for this entry: CCCC(=O)O[C@H]1CC[C@@]2(C)[C@@H](CC[C@]3(C)[C@@H]2CC=C2[C@@H]4[C@@H](C)[C@H](C)CC[C@]4(C)CC[C@]23C)[C@@]1(C)C(=O)O
63

Lookup CCCC(=O)O[C@@H]1CC[C@@]2(C)[C@@H](CC[C@]3(C)[C@@H]2CC=C2[C@@H]4[C@@H](C)[C@H](C)CC[C@]4(C)CC[C@]23C)[C@@]1(C)C(=O)O
94
